The measured values listed here are drawn from paper PMC5419745.

target: 1R CID G1080S; test: ITC; iTC200, 25°C, 20 mM sodium phosphate, pH 7.4, 150 mM NaCl; both partners dialysed against the same buffer
readout: pKd
Answers are plain numbers, as −log10 of the molar value.

[[record]]
binder = "IPPNALQDLLRTLRSPSSPQQQQQVLNILKSNPQLMAAFIKQRAAKYQ (domain or fragment, modifications not checked) [1R/2R NCBD]"
observed_measurement = 6.62


Then this binder:
Given IPPSALQDLLRTLRSPSSPQQQQQVLNILKSNPQLMAAFIKQRAARYQ (domain or fragment, modifications not checked) [1R/2R NCBD N2065S K2107R] , state its recorded pKd. 6.89
